From: paper PMC6874667

Biological target: OBP19b (Drosophila melanogaster, UniProt Q9VR95)
Construct: mature OBP19b without its native signal peptide
Sequence (Q9VR95 34-163): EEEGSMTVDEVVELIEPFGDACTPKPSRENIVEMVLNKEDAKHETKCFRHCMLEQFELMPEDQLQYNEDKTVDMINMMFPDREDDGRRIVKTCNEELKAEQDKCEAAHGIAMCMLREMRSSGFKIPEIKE
Assay: biochemical
Parameters: competitive NPN probe displacement from recombinant OBP19b, fluorescence 340/415 nm, single concentration, per cent fluorescence displacement
Settings: NPN displacement; buffer blank 13.4 % not subtracted
Where a name gives a salt, the structure may show the parent alone.
Binary classification by inhibition at 15000 µM, with 40% as an inclusive lower bound for Satisfied; all other cases are Not satisfied.

CSCC[C@H](N)C(=O)O [L-methionine]	Not satisfied
CC[C@H](C)[C@H](N)C(=O)O [L-isoleucine]	Not satisfied
N[C@@H](Cc1c[nH]c2ccccc12)C(=O)O [L-tryptophan]	Not satisfied
NC(N)=NOCC[C@H](N)C(=O)O [L-canavanine sulfate salt]	Not satisfied
N[C@@H](CO)C(=O)O [L-serine]	Satisfied
NCC(=O)O [Glycine]	Not satisfied
NC(=O)C[C@H](N)C(=O)O [L-asparagine]	Satisfied
C[C@H](N)C(=O)O [L-alanine]	Not satisfied

Item C[C@@H](N)C(=O)O [D-alanine] with inhibition at 15000 µM of 40% or above? Not satisfied

Could you do the same for N[C@H](Cc1ccccc1)C(=O)O [D-phenylalanine] , please? Not satisfied

Quick one: C[C@@H](O)[C@H](N)C(=O)O [L-threonine] Not satisfied

###

Target: OBP19b (Drosophila melanogaster)
Sequence (Q9VR95 34-163): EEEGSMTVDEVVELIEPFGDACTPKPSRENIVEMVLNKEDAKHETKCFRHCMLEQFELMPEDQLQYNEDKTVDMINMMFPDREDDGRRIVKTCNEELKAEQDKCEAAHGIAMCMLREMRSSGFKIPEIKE
Experimental endpoint: Kd (µM)
Just the number please, in µM, no unit attached.

What measured Kd goes with c1ccc(Nc2cccc3ccccc23)cc1 [NPN, N-phenyl-1-naphthylamine] ? 4.1

###

Target: OBP19b (Drosophila melanogaster, UniProt Q9VR95)
Construct: mature OBP19b without its native signal peptide
Assay: biochemical
Set-up: competitive NPN probe displacement from recombinant OBP19b, fluorescence 340/415 nm, single concentration, per cent fluorescence displacement
Conditions: NPN displacement; buffer blank 13.4 % not subtracted
Experimental endpoint: inhibition at 15000 µM (%)
Report as a plain number; the unit % is understood.

// solved cases for inhibition at 15000 µM follow
CC(C)[C@H](N)C(=O)O	16.2
NCCC[C@H](N)C(=O)O [L-ornithine dihydro chloride]	25.1
N[C@@H](CCC(=O)O)C(=O)O	-0.061
N[C@@H](Cc1ccccc1)C(=O)O	44
N[C@@H](Cc1ccc(O)cc1)C(=O)O	-122

Short answer please: inhibition at 15000 µM, OBP19b (Drosophila melanogaster, UniProt Q9VR95), entry `NCCCC[C@H](N)C(=O)O` 20.2

And `N[C@@H](CS)C(=O)O` ? -14.4

Okay, and `O=C(O)[C@@H]1CCCN1` ? 20.1

Also, `CC(C)C[C@H](N)C(=O)O` please. 22.8

Next entry: `NC(=O)CC[C@@H](N)C(=O)O` 22.6

Another compound to look at: `N[C@@H](Cc1c[nH]cn1)C(=O)O` 7.44

What do you get for `N[C@@H](CC(=O)O)C(=O)O` ? 43.4
